Origin of values: patent US11612661B2

target: rat α9α10 nAChR (Rattus norvegicus, UniProt P43144+Q9JLB5); assay: cell-based; format: cell-based; details: α9α10 nAChR IC50 (nM) Rat
Sequence (P43144 26-479 limits assumed): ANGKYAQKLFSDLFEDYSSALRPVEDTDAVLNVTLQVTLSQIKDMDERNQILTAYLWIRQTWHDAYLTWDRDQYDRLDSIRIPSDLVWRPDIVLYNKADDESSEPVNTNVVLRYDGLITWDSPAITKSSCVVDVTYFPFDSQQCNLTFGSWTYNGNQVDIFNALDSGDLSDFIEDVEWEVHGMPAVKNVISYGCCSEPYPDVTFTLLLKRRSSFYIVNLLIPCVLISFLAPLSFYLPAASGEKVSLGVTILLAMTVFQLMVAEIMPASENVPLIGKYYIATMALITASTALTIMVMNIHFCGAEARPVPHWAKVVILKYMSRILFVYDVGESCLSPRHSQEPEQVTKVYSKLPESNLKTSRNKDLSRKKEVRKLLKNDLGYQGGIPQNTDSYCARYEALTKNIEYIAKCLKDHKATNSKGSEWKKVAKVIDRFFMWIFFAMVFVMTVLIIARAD
Sequence (Q9JLB5 25-447 limits assumed): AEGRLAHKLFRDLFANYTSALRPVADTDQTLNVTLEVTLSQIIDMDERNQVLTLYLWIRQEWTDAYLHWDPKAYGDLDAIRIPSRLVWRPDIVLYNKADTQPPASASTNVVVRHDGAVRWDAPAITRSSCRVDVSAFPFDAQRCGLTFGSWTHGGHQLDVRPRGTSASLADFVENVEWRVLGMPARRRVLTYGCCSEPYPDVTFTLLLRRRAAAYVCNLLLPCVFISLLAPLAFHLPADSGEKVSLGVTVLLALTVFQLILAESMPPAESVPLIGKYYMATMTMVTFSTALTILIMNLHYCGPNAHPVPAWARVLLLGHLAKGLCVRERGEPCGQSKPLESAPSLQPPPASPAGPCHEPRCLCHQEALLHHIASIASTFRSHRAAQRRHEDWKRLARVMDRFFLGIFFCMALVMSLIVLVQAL
Bridge positions count the residues as written; N and C are the ends. Square brackets hold non-standard residues; d marks the D form. Triazole bridges read from a SMILES are 1,4-linked. Peptide text beside a SMILES is read from it. Tyr(3-I) = N[C@@H](Cc1ccc(O)c(I)c1)C(=O)O; Orn(N3) = [N-]=[N+]=NCCC[C@H](N)C(=O)O; Cit = NC(=O)NCCC[C@H](N)C(=O)O; Pra = C#CC[C@H](N)C(=O)O
Give IC50 for every item shown.

**Query** Name the recorded IC50 of the compound listed here: C[C@@H](O)[C@@H]1NC(=O)[C@@H]2CCCCNC(=O)CC[C@@H](C(=O)N[C@@H](Cc3ccc(O)cc3)C(N)=O)NC(=O)[C@H](CCC(N)=O)NC(=O)[C@H](Cc3ccc(O)c(I)c3)NC(=O)[C@H](CCCNC(N)=O)NC(=O)[C@H](CSSC[C@H](NC(=O)CN)C(=O)N2)NC(=O)[C@H](CCCNC(=N)N)NC(=O)[C@@H]2CCCN2C(=O)[C@H](CC(=O)O)NC1=O [Ix] (H-GCKTDPRC[Cit][Tyr(3-I)]QEY-NH2; disulfide 2-8; lactam 3-12)
**Result** 21 nM

**Query** Name the recorded IC50 of the compound listed here: C[C@@H](O)[C@@H]1NC(=O)[C@@H]2Cc3cn(nn3)CCC[C@@H](C(=O)N[C@@H](Cc3ccc(O)cc3)C(=O)N[C@H](Cc3ccc(O)cc3)C(=O)O)NC(=O)[C@H](CCC(N)=O)NC(=O)[C@H](Cc3c[nH]c4ccccc34)NC(=O)[C@H](CCCNC(N)=O)NC(=O)[C@H](CSSC[C@H](NC(=O)CN)C(=O)N2)NC(=O)[C@H](CCCNC(=N)N)NC(=O)[C@@H]2CCCN2C(=O)[C@H](CC(=O)O)NC1=O [Io] (H-GC[Pra]TDPRC[Cit]WQ[Orn(N3)]Y[dY]-OH; disulfide 2-8; triazole 3-12)
**Result** ≤ 10 nM

###

molecular target: human α9α10 nAChR (Homo sapiens, UniProt Q9GZZ6+Q9UGM1); assay: cell-based
Sequence (Q9UGM1 26-479 limits assumed): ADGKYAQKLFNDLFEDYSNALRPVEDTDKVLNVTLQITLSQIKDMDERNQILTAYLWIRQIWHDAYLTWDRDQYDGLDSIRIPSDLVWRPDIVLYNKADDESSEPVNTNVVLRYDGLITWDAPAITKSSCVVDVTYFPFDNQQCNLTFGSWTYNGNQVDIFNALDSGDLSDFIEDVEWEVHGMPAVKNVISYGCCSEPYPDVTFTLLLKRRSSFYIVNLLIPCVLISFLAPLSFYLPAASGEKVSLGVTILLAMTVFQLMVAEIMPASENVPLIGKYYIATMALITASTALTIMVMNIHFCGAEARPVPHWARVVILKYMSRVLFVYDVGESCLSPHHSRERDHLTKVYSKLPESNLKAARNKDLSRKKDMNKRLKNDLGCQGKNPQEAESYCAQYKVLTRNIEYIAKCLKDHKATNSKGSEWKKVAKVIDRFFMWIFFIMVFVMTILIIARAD
Sequence (Q9GZZ6 25-450 limits assumed): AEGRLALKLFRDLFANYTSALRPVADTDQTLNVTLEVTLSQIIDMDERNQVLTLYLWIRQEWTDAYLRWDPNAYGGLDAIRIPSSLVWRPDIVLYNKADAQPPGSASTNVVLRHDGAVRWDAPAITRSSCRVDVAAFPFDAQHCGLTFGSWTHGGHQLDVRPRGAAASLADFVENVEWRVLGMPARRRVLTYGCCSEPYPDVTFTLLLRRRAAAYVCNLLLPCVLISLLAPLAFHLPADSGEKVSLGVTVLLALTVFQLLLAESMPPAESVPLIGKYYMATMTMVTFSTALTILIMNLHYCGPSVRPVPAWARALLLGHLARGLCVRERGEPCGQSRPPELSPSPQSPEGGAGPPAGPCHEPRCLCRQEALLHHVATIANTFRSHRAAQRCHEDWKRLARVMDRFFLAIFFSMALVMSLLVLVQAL
Bridge positions count the residues as written; N and C are the ends. Square brackets hold non-standard residues; d marks the D form. Triazole bridges read from a SMILES are 1,4-linked. Peptide text beside a SMILES is read from it. Tyr(3-I) = N[C@@H](Cc1ccc(O)c(I)c1)C(=O)O; Orn(N3) = [N-]=[N+]=NCCC[C@H](N)C(=O)O; Dap(N3) = [N-]=[N+]=NC[C@H](N)C(=O)O; NMeY = CN[C@@H](Cc1ccc(O)cc1)C(=O)O; Cit = NC(=O)NCCC[C@H](N)C(=O)O; Pra = C#CC[C@H](N)C(=O)O
Give pIC50 for every item shown.
The quantity pIC50 is defined as the negative base-10 logarithm of the molar concentration.

**Query** Name the recorded pIC50 of the molecule listed here: C[C@@H](O)[C@@H]1NC(=O)[C@@H]2Cc3cn(nn3)CCC[C@@H](C(=O)N[C@@H](Cc3ccccc3)C(=O)O)NC(=O)[C@H](CCC(N)=O)NC(=O)[C@H](Cc3c[nH]c4ccccc34)NC(=O)[C@H](CCCNC(N)=O)NC(=O)[C@H](CSSC[C@H](NC(=O)CN)C(=O)N2)NC(=O)[C@H](CCCNC(=N)N)NC(=O)[C@@H]2CCCN2C(=O)[C@H](CC(=O)O)NC1=O [Il] (H-GC[Pra]TDPRC[Cit]WQ[Orn(N3)]F-OH; disulfide 2-8; triazole 3-12)
**Result** 7.96

**Query** Name the recorded pIC50 of the molecule listed here: C[C@@H](O)[C@@H]1NC(=O)[C@@H]2Cc3cn(nn3)C[C@@H](C(=O)N[C@@H](Cc3ccc(O)cc3)C(N)=O)NC(=O)[C@H](CCC(N)=O)NC(=O)[C@H](Cc3ccc(O)c(I)c3)NC(=O)[C@H](CCCNC(N)=O)NC(=O)[C@H](CSSC[C@H](NC(=O)CN)C(=O)N2)NC(=O)[C@H](CCCNC(=N)N)NC(=O)[C@@H]2CCCN2C(=O)[C@H](CC(=O)O)NC1=O [If] (H-GC[Pra]TDPRC[Cit][Tyr(3-I)]Q[Dap(N3)]Y-NH2; disulfide 2-8; triazole 3-12)
**Result** 5.82

**Query** Name the recorded pIC50 of the molecule listed here: C[C@@H](O)[C@@H]1NC(=O)[C@@H]2CCCn3cc(nn3)C[C@@H](C(=O)N[C@@H](Cc3ccc(O)cc3)C(N)=O)NC(=O)[C@H](CCC(N)=O)NC(=O)[C@H](Cc3ccc(O)c(I)c3)NC(=O)[C@H](CCCNC(N)=O)NC(=O)[C@H](CSSC[C@H](NC(=O)CN)C(=O)N2)NC(=O)[C@H](CCCNC(=N)N)NC(=O)[C@@H]2CCCN2C(=O)[C@H](CC(=O)O)NC1=O [Ie] (H-GC[Orn(N3)]TDPRC[Cit][Tyr(3-I)]Q[Pra]Y-NH2; disulfide 2-8; triazole 3-12)
**Result** 6.94

**Query** Name the recorded pIC50 of the molecule listed here: C[C@@H](O)[C@@H]1NC(=O)[C@@H]2CCCCNC(=O)CC[C@@H](C(=O)N[C@@H](Cc3ccc(O)cc3)C(N)=O)NC(=O)[C@H](CCC(N)=O)NC(=O)[C@H](Cc3ccc(O)c(I)c3)NC(=O)[C@H](CCCNC(N)=O)NC(=O)[C@H](CSSC[C@H](NC(=O)CN)C(=O)N2)NC(=O)[C@H](CCCNC(=N)N)NC(=O)[C@@H]2CCCN2C(=O)[C@H](CC(=O)O)NC1=O [Ix] (H-GCKTDPRC[Cit][Tyr(3-I)]QEY-NH2; disulfide 2-8; lactam 3-12)
**Result** 6.91

**Query** Name the recorded pIC50 of the molecule listed here: C[C@@H](O)[C@@H]1NC(=O)[C@@H]2Cc3cn(nn3)CCC[C@@H](C(=O)N[C@@H](Cc3ccc(O)cc3)C(=O)N(C)[C@@H](Cc3ccc(O)cc3)C(=O)O)NC(=O)[C@H](CCC(N)=O)NC(=O)[C@H](Cc3c[nH]c4ccccc34)NC(=O)[C@H](CCCNC(N)=O)NC(=O)[C@H](CSSC[C@H](NC(=O)CN)C(=O)N2)NC(=O)[C@H](CCCNC(=N)N)NC(=O)[C@@H]2CCCN2C(=O)[C@H](CC(=O)O)NC1=O [Ip] (H-GC[Pra]TDPRC[Cit]WQ[Orn(N3)]Y[NMeY]-OH; disulfide 2-8; triazole 3-12)
**Result** 7.59

###

target: rat α9α10 nAChR (Rattus norvegicus, UniProt P43144+Q9JLB5); test: cell-based; format: cell-based; settings: α9α10 nAChR IC50 (nM) Rat
Numbered stars: 1 amine (or outer) side, 2 acyl side, 3 side chain; on linkers, the order of the positions; unused ones are H or OH. Bridge positions count the residues as written; N and C are the ends. Square brackets hold non-standard residues; d marks the D form. Triazole bridges read from a SMILES are 1,4-linked. Peptide text beside a SMILES is read from it. Gly(αS-SH) = O=C([C@@H](N[*:1])S[*:3])[*:2]; Tyr(3-I) = N[C@@H](Cc1ccc(O)c(I)c1)C(=O)O; Orn(N3) = [N-]=[N+]=NCCC[C@H](N)C(=O)O; Cit = NC(=O)NCCC[C@H](N)C(=O)O; Pra = C#CC[C@H](N)C(=O)O
Quantity measured: IC50 (nM)
Dear colleague, please return just the value in nM, with no unit written.

**Query** Name the recorded IC50 of the molecule listed here: C[C@@H](O)[C@@H]1NC(=O)[C@H]2NC(=O)[C@@H](NC(=O)CN)Cc3cn(nn3)CCC[C@H](NC(=O)[C@H](CCCNC(=N)N)NC(=O)[C@@H]3CCCN3C(=O)[C@H](CC(=O)O)NC1=O)C(=O)N[C@@H](CCCNC(N)=O)C(=O)N[C@@H](Cc1ccc(O)c(I)c1)C(=O)N[C@@H](CCC(N)=O)C(=O)N[C@H](C(=O)N[C@@H](Cc1ccc(O)cc1)C(N)=O)CSS2 [Ic] (H-G[Pra][Gly(αS-SH)]TDPR[Orn(N3)][Cit][Tyr(3-I)]QCY-NH2; triazole 2-8; disulfide 3-12)
**Result** 69

**Query** Name the recorded IC50 of the molecule listed here: C[C@@H](O)[C@@H]1NC(=O)[C@@H]2Cc3cn(nn3)CCC[C@@H](C(=O)N[C@@H](Cc3ccc(O)cc3)C(=O)O)NC(=O)[C@H](CCC(N)=O)NC(=O)[C@H](Cc3ccc(O)c(I)c3)NC(=O)[C@H](CCCNC(N)=O)NC(=O)[C@H](CSSC[C@H](NC(=O)CN)C(=O)N2)NC(=O)[C@H](CCCNC(=N)N)NC(=O)[C@@H]2CCCN2C(=O)[C@H](CC(=O)O)NC1=O [Ib] (H-GC[Pra]TDPRC[Cit][Tyr(3-I)]Q[Orn(N3)]Y-OH; disulfide 2-8; triazole 3-12)
**Result** 7
